This collection of values is drawn from patent US12522590B2.

# assay details: Solubility test (shake 37° C., 24 h, HPLC)
# Type: physicochemical
# reported conditions: organic solvent or mixture, thermodynamic from solid, methanol, x ± s, n = 3, read-out: Solubility, Methanol
measured metric: solubility at 24 h (mg/mL)

molecule	unit descriptor	solubility at 24 h
C[C@H]1CCC/C=C/[C@@H]2C[C@H](OC(=O)OCc3ccccn3)C[C@H]2[C@H](O)/C=C/C(=O)O1 [Compound 2, BFA-7-(pyridine-2-ylmethyl)carbonate]	mg/mL	73.3
C[C@H]1CCC/C=C/[C@@H]2C[C@H](OC(=O)OCc3ccncc3)C[C@H]2[C@H](O)/C=C/C(=O)O1 [Compound 3, BFA-7-(pyridine-4-ylmethyl)carbonate]	mg/mL	70.3
C[C@H]1CCC/C=C/[C@@H]2C[C@H](OC(=O)OCCc3cccnc3)C[C@H]2[C@H](O)/C=C/C(=O)O1 [Compound 9, BFA-7-(pyridine-3-ylethyl)carbonate]	mg/mL	69
C[C@H]1CCC/C=C/[C@@H]2C[C@H](OC(=O)OCc3cccc(F)c3)C[C@H]2[C@H](O)/C=C/C(=O)O1 [Compound B, reference compound]	mg/mL	9.76
C[C@H]1CCC/C=C/[C@@H]2C[C@H](OC(=O)OCc3cncc(F)c3)C[C@H]2[C@H](O)/C=C/C(=O)O1	mg/mL	69.4

====

# System: human breast cancer cells MCF7
# assay details: Cell proliferation assay (CCK-8)
# Format: cell-based
# reported conditions: Homo sapiens, MCF7, 72 h
pIC50: −log10 of the molar value.
Reported values of pIC50 for individual entries

Observe how each entry below is paired with its result.
compound	tested target	assay value
COc1cccc2c1C(=O)c1c(O)c3c(c(O)c1C2=O)C[C@@](O)(C(=O)CO)C[C@@H]3O[C@H]1C[C@H](N)[C@H](O)[C@H](C)O1 [Adriamycin, reference compound]	human breast cancer cells MCF7	5.00 to 6.00
C[C@H]1CCC/C=C/[C@@H]2C[C@H](OC(=O)OCc3ccncc3)C[C@H]2[C@H](O)/C=C/C(=O)O1 [Compound 3, BFA-7-(pyridine-4-ylmethyl)carbonate]	human breast cancer cells MCF7	> 7.00
C[C@H]1CCC/C=C/[C@@H]2C[C@H](OC(=O)OCCc3cccnc3)C[C@H]2[C@H](O)/C=C/C(=O)O1 [Compound 9, BFA-7-(pyridine-3-ylethyl)carbonate]	human breast cancer cells MCF7	6.00 to 7.00
C[C@H]1CCC/C=C/[C@@H]2C[C@H](OC(=O)OCc3cccc(F)c3)C[C@H]2[C@H](O)/C=C/C(=O)O1 [Compound B, reference compound]	human breast cancer cells MCF7	6.00 to 7.00

Now, please, on to the next compound.
Task item: Name the recorded pIC50 of the compound listed here: C[C@H]1CCC/C=C/[C@@H]2C[C@H](OC(=O)OCc3ccc(N4CCCCC4)nc3)C[C@H]2[C@H](O)/C=C/C(=O)O1 [Compound 8]
Reply: 6.00 to 7.00

====

# System: human breast cancer cells MCF7
# assay details: Cell proliferation assay (CCK-8)
# Type: cell-based
# reported conditions: Homo sapiens, MCF7, 72 h
pIC50: −log10 of the molar value.
Recorded pIC50 values for a group of compounds are listed next.

Consider the following illustrative entries.
compound	pIC50
C[C@H]1CCC/C=C/[C@@H]2C[C@H](OC(=O)OCc3ccccn3)C[C@H]2[C@H](O)/C=C/C(=O)O1 [Compound 2, BFA-7-(pyridine-2-ylmethyl)carbonate]	6.00 to 7.00
Cc1ccc(COC(=O)O[C@@H]2C[C@H]3[C@H](O)/C=C/C(=O)O[C@@H](C)CCC/C=C/[C@@H]3C2)cn1	6.00 to 7.00
C[C@H]1CCC/C=C/[C@@H]2C[C@H](OC(=O)OCc3ccc(N)nc3)C[C@H]2[C@H](O)/C=C/C(=O)O1	6.00 to 7.00
C[C@H]1CCC/C=C/[C@@H]2C[C@H](OC(=O)OCc3cccnc3)C[C@H]2[C@H](OC(=O)OCc2cccnc2)/C=C/C(=O)O1 [Compound D, reference compound]	6.00 to 7.00

Task item: Please supply the value of reported pIC50 for the item C[C@H]1CCC/C=C/[C@@H]2C[C@H](OC(=O)OCc3cccnc3)C[C@H]2[C@H](O)/C=C/C(=O)O1 [Compound 1, BFA-7-(pyridine-3-ylmethyl)carbonate]
Reply: 6.00 to 7.00

Task item: Identify measured pIC50 associated with C[C@H]1CCC/C=C/[C@@H]2C[C@H](OC(=O)OCc3cncc(F)c3)C[C@H]2[C@H](O)/C=C/C(=O)O1
Reply: 6.00 to 7.00
